# Tested on: Escherichia coli TOP10
# procedure.text: shrunken log2 fold change of peptide-encoding DNA abundance (4.5 h post-induction vs induction); higher = less antimicrobial activity (less host growth inhibition)
# test.parameters: time post-induction: 4.5 h; library: site-saturation at positions 5, 18, 19, 20
If the reported shrunken log2 fold change equals or exceeds 0.08, assign condition met. If not, assign condition not met.

Please review the entries below; each comes with its answer.
>>> print(df.to_string())
          polymer_sequence              label
0  RRIRERPPRLPRPRPRPYCIPRP  condition not met
1  RRIRARPPRLPRPRPRPHWCPRP  condition not met
2  RRIRGRPPRLPRPRPRPDKDPRP      condition met
3  RRIRTRPPRLPRPRPRPQPQPRP      condition met

# check: shrunken log2 fold change of RRIRNRPPRLPRPRPRPDRLPRP is greater than or equal to 0.08
condition not met

Could you verify whether the entry RRIRERPPRLPRPRPRPESEPRP shows shrunken log2 fold change of no less than 0.08?
condition met

Is shrunken log2 fold change at least 0.08? Consider RRIRTRPPRLPRPRPRPEQQPRP
condition met

Determine whether measured shrunken log2 fold change meets or exceeds 0.08 for RRIRVRPPRLPRPRPRPPTHPRP
condition met

Please indicate if the recorded shrunken log2 fold change for RRIRYRPPRLPRPRPRPSDVPRP meets or exceeds 0.08.
condition not met

Does the reported shrunken log2 fold change for RRIRHRPPRLPRPRPRPPGMPRP fall at or above the 0.08 mark?
condition not met

Entry RRIRYRPPRLPRPRPRPINVPRP : is its shrunken log2 fold change no less than 0.08?
condition not met

Does shrunken log2 fold change meet or surpass 0.08 for RRIRARPPRLPRPRPRPDYLPRP ?
condition not met

Given the entry RRIRMRPPRLPRPRPRPVTKPRP , answer whether its shrunken log2 fold change meets or surpasses 0.08.
condition met

---

# Tested on: Escherichia coli TOP10
# procedure.text: shrunken log2 fold change of peptide-encoding DNA abundance (4.5 h post-induction vs induction); higher = less antimicrobial activity (less host growth inhibition)
# test.parameters: time post-induction: 4.5 h; library: site-saturation at positions 5, 18, 19, 20
assay.metric: shrunken log2 fold change
Output spec: single numeric token, no unit.

>>> print(df.to_string())
          polymer_sequence               assay_metric  obs_value
0  RRIRERPPRLPRPRPRPHHFPRP  shrunken log2 fold change    -0.0117
1  RRIRSRPPRLPRPRPRPRLKPRP  shrunken log2 fold change    -0.0978
2  RRIRKRPPRLPRPRPRPHGKPRP  shrunken log2 fold change      0.109
3  RRIRFRPPRLPRPRPRPPYAPRP  shrunken log2 fold change     0.0335

What value of shrunken log2 fold change has been reported for the following sequence? RRIRTRPPRLPRPRPRPIPRPRP
0.299

Consider the sequence shown here: RRIRTRPPRLPRPRPRPFIYPRP What is its recorded shrunken log2 fold change?
-0.657

Fill blank: measured shrunken log2 fold change of the sequence RRIRERPPRLPRPRPRPWCHPRP is ____.
-0.229

---

# System: Escherichia coli TOP10
# procedure.text: shrunken log2 fold change of peptide-encoding DNA abundance (4.5 h post-induction vs induction); higher = less antimicrobial activity (less host growth inhibition)
# test.parameters: time post-induction: 4.5 h; library: site-saturation at positions 5, 18, 19, 20
shrunken log2 fold change class ranges: low group = under -0.1, middle group = from -0.1 up to 0.06, high group = 0.06 and over

Please indicate the class for RRIRYRPPRLPRPRPRPNESPRP based on its shrunken log2 fold change.
middle group

Given RRIRKRPPRLPRPRPRPMGVPRP , name the class its shrunken log2 fold change places it in.
high group

State the class of the sequence shown: RRIRCRPPRLPRPRPRPACGPRP
high group

# classify by shrunken log2 fold change band: RRIRIRPPRLPRPRPRPKIPPRP
low group

For RRIRIRPPRLPRPRPRPMVSPRP , which shrunken log2 fold change bin applies?
middle group

Into which category would you place RRIRTRPPRLPRPRPRPDEHPRP ?
middle group

Which band does RRIRVRPPRLPRPRPRPCWSPRP fall in?
high group

Category lookup for the sequence RRIRERPPRLPRPRPRPWAIPRP
middle group

Which shrunken log2 fold change band matches RRIRERPPRLPRPRPRPFITPRP ?
low group

Please classify: RRIRCRPPRLPRPRPRPGHRPRP
middle group

Which bin, given its shrunken log2 fold change, does RRIRLRPPRLPRPRPRPLAVPRP occupy?
high group

Using the reported shrunken log2 fold change, which band applies to RRIRERPPRLPRPRPRPPKRPRP ?
high group

Record RRIRDRPPRLPRPRPRPVRQPRP — which class?
middle group

Which bin should I file RRIRGRPPRLPRPRPRPWAPPRP under?
high group

Entry RRIRQRPPRLPRPRPRPMTLPRP belongs to which category?
high group

---

# Tested on: Escherichia coli TOP10
# procedure.text: shrunken log2 fold change of peptide-encoding DNA abundance (4.5 h post-induction vs induction); higher = less antimicrobial activity (less host growth inhibition)
# test.parameters: time post-induction: 4.5 h; library: site-saturation at positions 5, 18, 19, 20
Classify by shrunken log2 fold change. Ranges: bucket A: < -0.4; bucket B: ≥ -0.4 and < 0.05; bucket C: ≥ 0.05

Below, 3 sequences whose answers are already recorded.
          polymer_sequence       system_under_test     label
0  RRIRGRPPRLPRPRPRPQRLPRP  Escherichia coli TOP10  bucket C
1  RRIRRRPPRLPRPRPRPPNKPRP  Escherichia coli TOP10  bucket C
2  RRIRARPPRLPRPRPRPNKDPRP  Escherichia coli TOP10  bucket B

Which shrunken log2 fold change band matches RRIRERPPRLPRPRPRPSCPPRP ?
bucket B

Returns: class label. Input: RRIRQRPPRLPRPRPRPRTFPRP
bucket A

Band assignment needed for RRIRERPPRLPRPRPRPMPSPRP please.
bucket C

Which shrunken log2 fold change band matches RRIRDRPPRLPRPRPRPNFLPRP ?
bucket B

Looking at RRIRWRPPRLPRPRPRPIVLPRP , which class would you pick?
bucket A

Hi there! Could you help me figure out the category for RRIRIRPPRLPRPRPRPRTQPRP please?
bucket C

Band of RRIRDRPPRLPRPRPRPHQMPRP ?
bucket B

Which shrunken log2 fold change category applies to RRIRDRPPRLPRPRPRPLYFPRP here?
bucket A

Hey, which category is RRIRQRPPRLPRPRPRPMSYPRP in, do you know?
bucket B

The entry to classify is RRIRFRPPRLPRPRPRPALPPRP ; which class holds it?
bucket C

Please indicate the class for RRIRFRPPRLPRPRPRPNKGPRP based on its shrunken log2 fold change.
bucket A

Hello team, could you let me know which band the following sequence falls into: RRIRIRPPRLPRPRPRPCAAPRP
bucket B

---

# System: Escherichia coli TOP10
# procedure.text: shrunken log2 fold change of peptide-encoding DNA abundance (4.5 h post-induction vs induction); higher = less antimicrobial activity (less host growth inhibition)
# test.parameters: time post-induction: 4.5 h; library: site-saturation at positions 5, 18, 19, 20
Entries get a class label from measured shrunken log2 fold change. See ranges: lower band (below -0.08), central band (-0.08 to below 0.06), upper band (0.06 or more)

Example entries and their recorded answers appear below.
>>> print(df.to_string())
          polymer_sequence       system_under_test         label
0  RRIRHRPPRLPRPRPRPNKKPRP  Escherichia coli TOP10    lower band
1  RRIRERPPRLPRPRPRPTKCPRP  Escherichia coli TOP10    upper band
2  RRIRSRPPRLPRPRPRPFLTPRP  Escherichia coli TOP10    lower band
3  RRIRERPPRLPRPRPRPRLHPRP  Escherichia coli TOP10  central band
4  RRIRERPPRLPRPRPRPMGTPRP  Escherichia coli TOP10    lower band
5  RRIRSRPPRLPRPRPRPDEKPRP  Escherichia coli TOP10  central band

Category lookup for the sequence RRIRMRPPRLPRPRPRPELKPRP
upper band

Determine which band this sequence sits in: RRIRDRPPRLPRPRPRPRESPRP
upper band

Band for RRIRERPPRLPRPRPRPIYVPRP ?
lower band

Hello team, could you let me know which band the following sequence falls into: RRIRPRPPRLPRPRPRPWEPPRP
central band

For this sequence, which bin applies? RRIRNRPPRLPRPRPRPCELPRP
lower band

---

# Test system: Escherichia coli TOP10;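 also: peptides expressed intracellularly from a pBAD plasmid library in pooled LB shake-flask culture, induced with 0.3% L-arabinose, DNA abundance read by NGS, three biological replicates, DESeq2 with apeglm shrinkage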
# procedure.text: shrunken log2 fold change of peptide-encoding DNA abundance (4.5 h post-induction vs induction); higher = less antimicrobial activity (less host growth inhibition)
# test.parameters: time post-induction: 4.5 h; library: site-saturation at positions 5, 18, 19, 20
assay.metric: shrunken log2 fold change
# respond with the number and nothing more

Tell me the measured shrunken log2 fold change of RRIRGRPPRLPRPRPRPCASPRP , please.
0.557

Query (sequence): RRIRCRPPRLPRPRPRPNSYPRP ; field requested: shrunken log2 fold change
-0.54

Item under review: RRIRERPPRLPRPRPRPVLCPRP . Reported shrunken log2 fold change?
0.0605

shrunken log2 fold change for RRIRFRPPRLPRPRPRPTQDPRP ?
0.33

Item RRIRYRPPRLPRPRPRPSMTPRP has what recorded shrunken log2 fold change?
-0.817

So what's the measured shrunken log2 fold change for this one? RRIRFRPPRLPRPRPRPFKNPRP
-0.46

Which shrunken log2 fold change value belongs to RRIRKRPPRLPRPRPRPHKGPRP ?
-0.0331

Param item = RRIRLRPPRLPRPRPRPRWCPRP ; retrieve measured shrunken log2 fold change.
-0.0806

Please give the measured shrunken log2 fold change for this sequence: RRIRFRPPRLPRPRPRPTHGPRP
-0.0666

Recorded shrunken log2 fold change of RRIRTRPPRLPRPRPRPIVLPRP , please.
-0.145

Reported shrunken log2 fold change, sequence RRIRDRPPRLPRPRPRPGVKPRP : ____
0.0336

Can you look up the measured shrunken log2 fold change of RRIRWRPPRLPRPRPRPLQVPRP for me?
-0.125

Any idea what shrunken log2 fold change was measured for RRIRGRPPRLPRPRPRPWSIPRP ?
-0.108

Data request, read-out shrunken log2 fold change, for RRIRNRPPRLPRPRPRPENQPRP
0.216

Recorded shrunken log2 fold change for RRIRMRPPRLPRPRPRPKTAPRP , please?
2.56

Find the recorded shrunken log2 fold change belonging to RRIRMRPPRLPRPRPRPCAQPRP and report it.
-0.0823
